- measurement.notes: Pharmacokinetics in rats (HPLC-MS/MS, WinNonlin)
- Assay type: in vivo, SD rats
- test.parameters: SD, rat, plasma, po, 50 mg/kg, allopurinol, rats, gavage 50 mg/kg, single animals; read-out: MRT (0–∞), individual rats 1-3
- Procedure: The volume of intravenous administration was 1 ml/250 g, and the volume of oral administration was 1 ml/100 g. Whole blood was collected at 2, 5, 10, 20, 30, 60, 120, 240, 360, 480, 720, and 1440 min after intravenous administration. The rats’ blood was transferred to the heparinized test tube. The whole blood was centrifuged at 8,000 rpm for 5 min, and the plasma was separated and stored in a refrigerator at -80°C for testing.
measured.parameter: MRT inf (h)
Use h as the unit, but write only the number.

Reported MRT inf of Oc1ncnc2[nH]ncc12 [allopurinol] : 2.88
